METHOD: ATG_CRE_CIS: Attagene CIS-FACTORIAL HepG2 Assay for human cAMP Responsive Element (CRE) binding protein 3 (AID 2282926)
RUN PARAMETERS: HepG2 CRE cis-reporter, Attagene multiplexed mRNA; actives raise or lower the signal
Activity calls are given as the source filed them. Rule for the calls: active = hit-call score of the fitted dose curve at least 0.9, where 1 is the maximum; inactive = score below 0.9.
Write down the outcome that applies. Available outcomes: active, inactive

>  <COMPOUND>
C[C@H](CCC(=O)NCC(=O)O)[C@H]1CC[C@H]2[C@@H]3[C@H](O)C[C@@H]4C[C@H](O)CC[C@]4(C)[C@H]3C[C@H](O)[C@]12C

>  <ASSIGNED LABEL>
inactive

$$$$
>  <COMPOUND>
OCCc1ccccc1

>  <ASSIGNED LABEL>
inactive

$$$$

# input Short answer needed: outcome of this test for CCCCCCCCCCCC(=O)OCC(O)CO (stereo not drawn) ?
# output active

# input Short answer needed: outcome of this test for ClC(c1ccccc1)(c1ccccc1)c1ccccc1 ?
# output inactive

###

METHOD: ATG_AP_1_CIS: Attagene CIS-FACTORIAL HepG2 Assay for human Activator Protein 1 (AP-1) (AID 2282931)
RUN PARAMETERS: HepG2 Attagene cis-factorial AP-1 reporter mRNA; actives raise or lower the signal
Active and inactive are the calls of the source. How the source made its calls: active means hit-call score of the fitted dose curve at least 0.9, where 1 is the maximum; inactive means score below 0.9.
Write down the outcome that applies. Available outcomes: active, inactive

Check out these entries, answers already filled in.
>  <COMPOUND>
CN(C)C(=O)Nc1ccc(Oc2ccc(Cl)cc2)cc1

>  <ASSIGNED LABEL>
active

$$$$
>  <COMPOUND>
CCCCCCCC(=O)OCC(O)CO (stereo not drawn)

>  <ASSIGNED LABEL>
inactive

$$$$

# input Short answer needed: outcome of this test for c1ccc(Oc2ccccc2)cc1 ?
# output inactive

# input Short answer needed: outcome of this test for C=C(C)[C@@H]1CC=C(C)C(=O)C1 ?
# output inactive

# input Short answer needed: outcome of this test for CN(C)c1ccncc1 ?
# output inactive

# input Short answer needed: outcome of this test for OCc1cccc(Oc2ccccc2)c1 ?
# output inactive

# input Short answer needed: outcome of this test for CC=CC=CCOC(=O)C(C)C ?
# output active

# input Short answer needed: outcome of this test for C1CCOC1 ?
# output inactive

###

TARGET OF ASSAY: Heat shock factor protein 1 (Homo sapiens)
METHOD: ATG_HSE_CIS: Attagene CIS-FACTORIAL HepG2 Assay for human Heat Shock Transcription Factor 1 (HSE) (AID 2282953)
RUN PARAMETERS: HepG2 HSE cis-reporter, Attagene RNA transcription; actives raise or lower the signal
Calls of active or inactive are those of the source. Rule for the calls: active = hit-call score of the fitted dose curve at least 0.9, where 1 is the maximum; inactive = score below 0.9.
Write down the outcome that applies. Available outcomes: 1 (active), -1 (inactive)

Check out these entries, answers already filled in.
>  <COMPOUND>
CCOC(=O)c1ccc(N)cc1

>  <ASSIGNED LABEL>
1

$$$$
>  <COMPOUND>
COc1ccc(N)c([N+](=O)[O-])c1

>  <ASSIGNED LABEL>
-1

$$$$
>  <COMPOUND>
CCCCCCC(=O)c1ccccc1

>  <ASSIGNED LABEL>
-1

$$$$

Lab note: next compound to report on.
# input Short answer needed: outcome of this test for CN(C)c1ccncc1 ?
# output -1

###

TARGET OF ASSAY: human Matrix Metalloproteinase-9 (MMP9), MMP9 (gene 4318)
METHOD: NVS_ENZ_hMMP9: NovaScreen (NVS) Enzymatic Assay for human Matrix Metalloproteinase-9 (MMP9) (AID 2283190);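 note: cell-free recombinant MMP9 protease activity read by fluorescent substrate signal; active means inhibition seen as loss of fluorescence signal versus DMSO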
Inconclusive results are not listed. Calls of active or inactive are those of the source. How the source made its calls: active means hit-call score of the fitted dose curve at least 0.9, where 1 is the maximum; inconclusive means response in the unintended direction; inactive means score below 0.9.
Write down the outcome that applies. Available outcomes: class 1 for active, class 0 for inactive

>  <COMPOUND>
CC(C)CC(C)CC(O)CC(C)C (configuration not stated)

>  <TARGET OF ASSAY>
human Matrix Metalloproteinase-9 (MMP9), MMP9 (gene 4318)

>  <ASSIGNED LABEL>
class 1

$$$$
>  <COMPOUND>
C=CCCCCCCCCCC

>  <TARGET OF ASSAY>
human Matrix Metalloproteinase-9 (MMP9), MMP9 (gene 4318)

>  <ASSIGNED LABEL>
class 0

$$$$
>  <COMPOUND>
CC(C)(N=C=O)c1cccc(C(C)(C)N=C=O)c1

>  <TARGET OF ASSAY>
human Matrix Metalloproteinase-9 (MMP9), MMP9 (gene 4318)

>  <ASSIGNED LABEL>
class 1

$$$$
>  <COMPOUND>
c1ccc2[nH]cnc2c1

>  <TARGET OF ASSAY>
human Matrix Metalloproteinase-9 (MMP9), MMP9 (gene 4318)

>  <ASSIGNED LABEL>
class 1

$$$$
>  <COMPOUND>
c1ccc(Oc2ccccc2)cc1

>  <TARGET OF ASSAY>
human Matrix Metalloproteinase-9 (MMP9), MMP9 (gene 4318)

>  <ASSIGNED LABEL>
class 0

$$$$

# input Short answer needed: outcome of this test for O=C1OC[C@H](Cc2cccc(O)c2)[C@H]1Cc1cccc(O)c1 ?
# output class 1

# input Short answer needed: outcome of this test for C=C(C)C(=O)OCC(CC)(COC(=O)C(=C)C)COC(=O)C(=C)C ?
# output class 1
